The measured values listed here are drawn from PubChem BioAssay AID328.

tested on: BDF1 mice, P388 leukemia ip, median survival T/C; assay: NCI In Vivo Anticancer Drug Screen. Data for tumor model P388 Leukemia (intraperitoneal) in B6D2F1 (BDF1) mice; conditions: endpoint: median survival time; dose: 400.0 mg/kg/injection; schedule: Q04DX003 (ip); vehicle: other; higher = longer survival
Inconclusive results and toxic doses are left out.
Known T/C of a selection of molecules

The examples below pair each entry with its known result.
Molecule	Meas value
OCCNc1ccc(I)cc1	104 % of control
O=C(N/N=C/c1cccc(Cl)c1)c1ccccc1	113 % of control
CC(=O)OCC(OC(C)=O)C(OC(C)=O)C(OC(C)=O)C(/C=N/NC(N)=S)=N/NC(N)=S (stereo not given)	120 % of control
ClC(c1ccccc1)(c1ccccc1)c1ccccc1	104 % of control

If you can, please state the reported T/C value of `COc1c(Cl)cc(Cl)cc1Cl` .
110 % of control

---

Known T/C of a selection of molecules
tested on: BDF1 mice, P388 leukemia ip, median survival T/C; experiment: NCI In Vivo Anticancer Drug Screen. Data for tumor model P388 Leukemia (intraperitoneal) in B6D2F1 (BDF1) mice; settings: endpoint: median survival time; dose: 25.0 mg/kg/injection; schedule: Q01DX009 (ip); vehicle: water; higher = longer survival
Toxic doses and inconclusive results are not listed.

The examples below pair each entry with its known result.
Molecule	T/C
COC1=C(O)C(C(O)CO)OC1=O (configuration not stated)	110 % of control
C=CC[N+](CC=C)(CC=C)CC[N+](CC=C)(CC=C)CC=C	105 % of control
CCOC(=O)C1=C(Nc2ccccc2)CSC1	94 % of control

If you can, please state the reported T/C value of `C[n+]1cc2c3ccccc3c(N)cc2c2ccccc21` .
91 % of control

# iterate: `NC(N)=Nc1ccc(OC(=O)c2ccc(N=C(N)N)cc2)cc1`
103 % of control

# iterate: `CCN(Cc1ccc(Cl)c(Cl)c1)c1ccc2nc(N)nc(N)c2c1C`
89 % of control

# iterate: `O=Cc1ccc(/C=C2\NC(=O)NC2=O)cc1`
121 % of control

# iterate: CC([NH-])C(=O)O.CC([NH-])C(=O)O.CC([NH-])C(=O)O.[Co+3] (configuration not stated)
103 % of control

# iterate: O=C1/C(=C\c2ccccc2)C(Br)c2ccccc21 (configuration not stated)
110 % of control

# iterate: `CCOC(=O)Nc1cncc(NC(=O)OCC)n1`
100 % of control

# iterate: COc1cccc2c1C(=O)c1c(O)c3c(c(O)c1C2=O)CC(O)(/C(C)=N/NC(=O)CCCCCCCCC(=O)N/N=C(\C)C1(O)Cc2c(O)c4c(c(O)c2C(OC2CC(N)C(O)C(C)O2)C1)C(=O)c1c(OC)cccc1C4=O)CC3OC1CC(N)C(O)C(C)O1 (configuration not stated)
88 % of control

# iterate: `CNNCc1ccc(/C=N/NC(N)=S)cc1`
92 % of control

# iterate: `COc1cc(C(=O)N2CC2)cc(OC)c1OC`
101 % of control

# iterate: `CC([NH-])=O.CC([NH-])=O.[Pt+2]`
96 % of control

# iterate: `CC1(C)CCC(=O)O1`
104 % of control

# iterate: `COc1cccc2c(=O)cc(C)[nH]c12`
107 % of control

# iterate: `O/C(=C/C(=S)S)c1ccco1`
93 % of control
